Target: Nav1.8 (Homo sapiens)
Construct: host or cells: HEK cells
Sequence (Q9Y5Y9 whole entry): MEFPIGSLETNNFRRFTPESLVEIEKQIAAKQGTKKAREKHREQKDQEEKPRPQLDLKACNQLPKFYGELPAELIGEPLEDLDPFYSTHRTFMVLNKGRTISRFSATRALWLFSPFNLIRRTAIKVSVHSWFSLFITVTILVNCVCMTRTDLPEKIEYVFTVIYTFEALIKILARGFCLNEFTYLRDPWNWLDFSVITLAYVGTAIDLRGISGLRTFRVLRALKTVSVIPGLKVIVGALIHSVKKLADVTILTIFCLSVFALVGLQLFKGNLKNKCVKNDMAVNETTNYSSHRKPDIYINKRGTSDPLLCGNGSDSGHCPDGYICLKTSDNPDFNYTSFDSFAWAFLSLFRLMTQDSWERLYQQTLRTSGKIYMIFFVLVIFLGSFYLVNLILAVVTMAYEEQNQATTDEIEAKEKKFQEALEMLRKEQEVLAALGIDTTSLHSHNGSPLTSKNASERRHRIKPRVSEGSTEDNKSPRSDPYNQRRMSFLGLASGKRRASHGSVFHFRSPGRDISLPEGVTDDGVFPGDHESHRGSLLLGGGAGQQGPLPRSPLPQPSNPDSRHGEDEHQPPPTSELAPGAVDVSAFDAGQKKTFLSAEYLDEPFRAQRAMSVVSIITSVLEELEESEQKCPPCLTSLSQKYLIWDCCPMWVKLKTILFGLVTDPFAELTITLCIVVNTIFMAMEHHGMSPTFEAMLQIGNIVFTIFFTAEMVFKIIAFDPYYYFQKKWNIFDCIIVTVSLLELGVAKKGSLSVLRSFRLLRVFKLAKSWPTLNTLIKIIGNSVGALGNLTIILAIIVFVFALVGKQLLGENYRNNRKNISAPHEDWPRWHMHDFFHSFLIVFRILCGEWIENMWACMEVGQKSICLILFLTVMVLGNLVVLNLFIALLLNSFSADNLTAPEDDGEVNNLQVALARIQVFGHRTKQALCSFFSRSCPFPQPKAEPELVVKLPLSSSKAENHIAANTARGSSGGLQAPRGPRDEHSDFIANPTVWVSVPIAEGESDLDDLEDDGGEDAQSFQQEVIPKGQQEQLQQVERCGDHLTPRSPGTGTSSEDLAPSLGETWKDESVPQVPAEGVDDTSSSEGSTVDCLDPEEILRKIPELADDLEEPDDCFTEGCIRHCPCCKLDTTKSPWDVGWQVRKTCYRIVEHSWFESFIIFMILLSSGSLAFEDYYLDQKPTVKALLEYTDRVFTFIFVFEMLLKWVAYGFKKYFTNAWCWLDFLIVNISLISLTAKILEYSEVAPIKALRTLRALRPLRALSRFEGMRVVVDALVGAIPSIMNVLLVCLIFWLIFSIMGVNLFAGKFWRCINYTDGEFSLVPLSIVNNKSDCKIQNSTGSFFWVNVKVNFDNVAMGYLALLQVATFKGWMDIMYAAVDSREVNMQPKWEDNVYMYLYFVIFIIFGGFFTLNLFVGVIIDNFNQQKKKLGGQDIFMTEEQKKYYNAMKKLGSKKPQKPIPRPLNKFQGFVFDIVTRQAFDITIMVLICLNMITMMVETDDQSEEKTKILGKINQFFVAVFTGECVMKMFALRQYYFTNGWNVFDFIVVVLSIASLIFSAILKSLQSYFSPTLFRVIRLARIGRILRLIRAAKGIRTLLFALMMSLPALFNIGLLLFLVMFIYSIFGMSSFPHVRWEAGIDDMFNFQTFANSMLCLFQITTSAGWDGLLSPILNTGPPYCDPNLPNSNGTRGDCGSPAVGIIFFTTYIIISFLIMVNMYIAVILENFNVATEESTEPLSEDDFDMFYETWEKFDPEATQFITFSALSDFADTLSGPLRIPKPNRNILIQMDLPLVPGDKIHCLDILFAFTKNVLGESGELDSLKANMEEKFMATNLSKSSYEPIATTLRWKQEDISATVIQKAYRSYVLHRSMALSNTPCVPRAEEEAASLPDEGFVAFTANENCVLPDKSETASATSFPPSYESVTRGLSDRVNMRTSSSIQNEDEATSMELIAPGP
Assay: VIPR (voltage/ion probe reader) membrane potential assay, Nav1.8
Type: cell-based
Conditions: HEK293, HEK cells expressing hNav1.8, veratridine
measurement_name: inhibition at 10 µM (%)
I only need the number, in %, no unit after it.

Q: What measured inhibition at 10 µM is associated with CC(CCc1ccccc1)NC(=O)c1ccc(-c2ccccc2)cc1 (stereo not drawn) [실시예 25, N-(4-페닐부탄-2-일)-[1,1'-바이페닐]-4-카복스아미드] on Nav1.8 (Homo sapiens)?
Result: 31.2

Q: What measured inhibition at 10 µM is associated with NC(=O)[C@@H](NCc1c[nH]c2ccc(Cl)cc12)c1ccccc1 [실시예 7] on Nav1.8 (Homo sapiens)?
Result: 3.45

Q: What measured inhibition at 10 µM is associated with COc1ccc2[nH]cc(CN[C@@H](C)C(N)=O)c2c1 [실시예 5, (S)-2-((5-메톡시-1H-인돌-3-일)메틸아미노)프로판아미드] on Nav1.8 (Homo sapiens)?
Result: 18.3

Q: What measured inhibition at 10 µM is associated with NC(=O)[C@@H](NCc1ccc(Oc2ccc(F)cc2)cc1)c1ccccc1 [실시예 10, (S)-2-(4-(4-플루오로페녹시)벤질아미노)-2-페닐아세트아미드] on Nav1.8 (Homo sapiens)?
Result: 11.3

Q: What measured inhibition at 10 µM is associated with COc1cc(CNC(=O)c2ccc(-c3ccccc3)cc2)cc(OC)c1OC [실시예 38, N-(3,4,5-트리메톡시벤질)-[1,1'-바이페닐]-4-카복스아미드] on Nav1.8 (Homo sapiens)?
Result: 18.3

Q: What measured inhibition at 10 µM is associated with C[C@H](NCc1c[nH]c2ccc(Cl)cc12)C(N)=O [실시예 3, (S)-2-((5-클로로-1H-인돌-3-일)메틸아미노)프로판아미드] on Nav1.8 (Homo sapiens)?
Result: 20.7
